Recorded measurements of hP2X23/hP2X3* Selectivity (1321N1), one per entry
# SUBJECT_OF_TEST: human P2X2/3 receptors (Homo sapiens, UniProt P56373+Q9UBL9)
# Construct: expressed in transfected cells; host or cells: human astrocytoma 1321N1 (1312N1 [sic])
# Sequence (P56373 1-397): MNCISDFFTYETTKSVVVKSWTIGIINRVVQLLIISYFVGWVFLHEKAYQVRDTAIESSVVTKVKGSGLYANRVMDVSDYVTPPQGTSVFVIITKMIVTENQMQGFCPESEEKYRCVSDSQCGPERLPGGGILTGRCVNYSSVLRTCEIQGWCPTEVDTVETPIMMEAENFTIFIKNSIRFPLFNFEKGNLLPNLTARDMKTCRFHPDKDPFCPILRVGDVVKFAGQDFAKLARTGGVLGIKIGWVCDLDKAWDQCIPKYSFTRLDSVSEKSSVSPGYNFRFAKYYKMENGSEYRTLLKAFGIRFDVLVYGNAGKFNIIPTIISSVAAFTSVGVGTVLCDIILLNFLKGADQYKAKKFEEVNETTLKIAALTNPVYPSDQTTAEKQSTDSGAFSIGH
# Sequence (Q9UBL9 1-471): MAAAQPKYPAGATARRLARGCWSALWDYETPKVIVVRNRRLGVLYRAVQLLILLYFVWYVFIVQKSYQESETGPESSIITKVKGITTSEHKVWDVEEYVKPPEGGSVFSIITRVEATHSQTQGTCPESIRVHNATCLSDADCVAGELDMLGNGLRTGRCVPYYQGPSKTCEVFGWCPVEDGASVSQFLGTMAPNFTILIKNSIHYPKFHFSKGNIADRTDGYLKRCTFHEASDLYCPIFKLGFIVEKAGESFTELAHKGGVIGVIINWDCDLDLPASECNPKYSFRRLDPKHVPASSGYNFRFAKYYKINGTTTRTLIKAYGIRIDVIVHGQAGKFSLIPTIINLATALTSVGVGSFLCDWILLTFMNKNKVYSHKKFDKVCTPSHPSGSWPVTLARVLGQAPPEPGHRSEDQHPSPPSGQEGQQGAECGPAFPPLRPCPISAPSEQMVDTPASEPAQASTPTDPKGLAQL
# EXPERIMENT: Intracellular calcium measurement, antagonist activity at human P2X2/3 receptors (hP2X23 1321N1), Fluo8
# Format: cell-based
# STUDY_CONDITIONS: ratio of column 4) hP2X2/3 to column 3) hP2X3, 1321N1
Number, no unit, nothing else.

>>> numeric_value("Cc1cc2n(CC(=O)Nc3ccc(F)cn3)c3c(c(=O)n2n1)CN([C@@H](C)C1CC1)C3=O")
56

Write down the reported hP2X23/hP2X3* Selectivity (1321N1) of `COC[C@H](C)N1Cc2c(n(CC(=O)Nc3ccc(F)cn3)c3cc(C4CC4)nn3c2=O)C1=O` , test system: human P2X2/3 receptors (Homo sapiens, UniProt P56373+Q9UBL9).
535

###

# SUBJECT_OF_TEST: human P2X3 receptor (Homo sapiens)
# Sequence (P56373 1-397): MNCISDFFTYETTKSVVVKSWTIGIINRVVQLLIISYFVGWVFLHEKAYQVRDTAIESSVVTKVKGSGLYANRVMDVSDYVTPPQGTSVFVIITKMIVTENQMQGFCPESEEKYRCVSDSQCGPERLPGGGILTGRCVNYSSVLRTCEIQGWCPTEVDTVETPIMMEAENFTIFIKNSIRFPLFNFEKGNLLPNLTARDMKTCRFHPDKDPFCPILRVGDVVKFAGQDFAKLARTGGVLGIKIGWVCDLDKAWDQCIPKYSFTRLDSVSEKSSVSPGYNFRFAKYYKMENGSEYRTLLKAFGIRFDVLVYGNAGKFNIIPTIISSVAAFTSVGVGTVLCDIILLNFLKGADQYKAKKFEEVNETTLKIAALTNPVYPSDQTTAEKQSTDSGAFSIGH
# EXPERIMENT: Intracellular calcium measurement to assess antagonist activity at human P2X3 receptors (hP2X3 CHO), photina luminescence
# Format: cell-based
# Parameters: expressed in transfected cells; host or cells: Chinese hamster ovary (CHO) cells
# STUDY_CONDITIONS: column 2), CHO cells, agonist α,β-methylene-ATP at EC50
EXPERIMENTAL_ENDPOINT: IC50 (nM)
Enter your answer as a number in nM; do not include the unit.

>>> numeric_value("COC[C@H](C)N1Cc2c(n(CC(=O)Nc3ccc(F)cn3)c3cc(C(=O)N(C)Cc4cccnc4)nn3c2=O)C1=O [Example 218]")
15
>>> numeric_value("CCc1cc2n(CC(=O)Nc3ccc(Cl)cn3)c3c(c(=O)n2n1)CN(CC1CCCO1)C3=O (stereo not drawn) [Example 62]")
55
>>> numeric_value("CC(C)N1Cc2c(n(CC(=O)Nc3ccc(F)cn3)c3cc(C(=O)NC(C)(C)C)nn3c2=O)C1=O [Example 186]")
124
>>> numeric_value("CCc1cc2n(CC(=O)Nc3ccc(F)cn3)c3c(c(=O)n2n1)CN(CC1CCNC1)C3=O.Cl (stereo not drawn) [Example 238]")
550

// lookup IC50 for CC(C)N1Cc2c(n(CC(=O)Nc3ccc(F)cn3)c3cc(C(=O)Nc4ccc(F)cc4)nn3c2=O)C1=O [Example 208]
28

// lookup IC50 for CCc1cc2n(CC(=O)Nc3ccc(F)cn3)c3c(c(=O)n2n1)CN(Cc1ccc(F)cc1)C3=O [Example 112]
17

// lookup IC50 for CC(C)N1Cc2c(n(CC(=O)Nc3ccc(F)cn3)c3cc(C4=COCC4)nn3c2=O)C1=O [Example 144]
36

###

# SUBJECT_OF_TEST: UniProt:P56373
# EXPERIMENT: Intracellular calcium measurement to assess antagonist activity at human P2X3 receptors (hP2X3 CHO), photina luminescence
# Assay type: cell-based
# Set-up: expressed in transfected cells; host or cells: Chinese hamster ovary (CHO) cells
# STUDY_CONDITIONS: column 2), CHO cells, agonist α,β-methylene-ATP at EC50
Could you please mark label 1 for values of IC50 below 40 nM and label 0 for values at or above it?

Use these answered entries as a reference point.
>>> cat("CCc1cc2n(CC(=O)Nc3ccc(F)cn3)c3c(c(=O)n2n1)CN(C1CN(C(=O)OC(C)(C)C)C1)C3=O")
"label 0"
>>> cat("COC[C@H](C)N1Cc2c(n(CC(=O)Nc3ccc(F)cn3)c3cc(C4CCOCC4)nn3c2=O)C1=O")
"label 1"
>>> cat("CCc1cc2n(CC(=O)Nc3ccc(F)cn3)c3c(c(=O)n2n1)CN(C[C@@H]1COCCN1)C3=O")
"label 0"

Record `CC(C)N1Cc2c(n(CC(=O)Nc3ccc(F)cn3)c3cc(C4CN(C)C4)nn3c2=O)C1=O` : is its IC50 strictly below 40 nM?
label 0

Record `CCc1cc2n(CC(=O)Nc3ccc(F)cn3)c3c(c(=O)n2n1)CN(C)C3=O` : is its IC50 strictly below 40 nM?
label 0

Record `CCc1cc2n(CC(=O)Nc3ccc(F)cn3)c3c(c(=O)n2n1)CN(C(C)(C)COCc1ccccc1)C3=O` : is its IC50 strictly below 40 nM?
label 1

###

# SUBJECT_OF_TEST: UniProt:P56373
# EXPERIMENT: Intracellular calcium measurement to assess antagonist activity at human P2X3 receptors (hP2X3 CHO), photina luminescence
# Type: cell-based
# Set-up: expressed in transfected cells; host or cells: Chinese hamster ovary (CHO) cells
# STUDY_CONDITIONS: column 2), CHO cells, agonist α,β-methylene-ATP at EC50
EXPERIMENTAL_ENDPOINT: log10 of IC50 (log10 of the value in nM)
Answers are given as log10 of IC50 in nM.

// lookup log10 of IC50 for `COc1ccccc1NC(=O)c1cc2n(CC(=O)Nc3ccc(F)cn3)c3c(c(=O)n2n1)CN(C(C)C)C3=O`
2.13

// lookup log10 of IC50 for `CC(C)Nc1cc2n(CC(=O)Nc3ccc(F)cn3)c3c(c(=O)n2n1)CN(C(C)C)C3=O`
1.43

// lookup log10 of IC50 for `CCc1cc2n(CC(=O)Nc3ccc(F)cn3)c3c(c(=O)n2n1)CN(C[C@H]1CCCN1)C3=O`
2.53

// lookup log10 of IC50 for `CC(C)N1Cc2c(n(CC(=O)Nc3ccc(F)cn3)c3cc(NCCOCc4ccccc4)nn3c2=O)C1=O`
1.94

// lookup log10 of IC50 for `CCc1cc2n(CC(=O)Nc3ccc(F)cn3)c3c(c(=O)n2n1)CN(CC1CCN(C(=O)OC(C)(C)C)CC1)C3=O`
1.81

// lookup log10 of IC50 for `CC(C)N1Cc2c(n(CC(=O)Nc3ccc(F)cn3)c3cc(NC(=O)C(F)F)nn3c2=O)C1=O`
2.22

// lookup log10 of IC50 for `CC(C)N1Cc2c(n(CC(=O)Nc3ccc(F)cn3)c3cc(C4=CCN(C(=O)OC(C)(C)C)C4)nn3c2=O)C1=O`
1.04

// lookup log10 of IC50 for `CCc1cc2n(CC(=O)Nc3ccc(F)cn3)c3c(c(=O)n2n1)CN(C[C@H]1CNCCO1)C3=O`
2.56

// lookup log10 of IC50 for `CC(C)N1Cc2c(n(CC(=O)Nc3ccc(F)cn3)c3cc(NC4CCCC4)nn3c2=O)C1=O`
1.23

// lookup log10 of IC50 for `Cc1cnc(-c2cc3n(CC(=O)Nc4ccc(F)cn4)c4c(c(=O)n3n2)CN(C(C)C)C4=O)c(C)c1`
0.70

Attribution: patent US11319324B2
